System: SK-MEL-5 melanoma
Assay: NCI-60 one-dose screen, 48 h
Details: 10 µM unless noted
Compounds without any hit were thinned out: in the full panel of roughly 83,000, 20% have a hit. The source made the active and inactive calls. How the source made its calls: active means growth percent below 10; inactive means the rest.
Allowed answers: active, inactive

O=C(CSc1nc2c(n1Nc1ccccc1)-c1ccccc1SC2)Nc1nc(-c2ccc(Cl)cc2)cs1 ... inactive
COc1cc(C2NC(c3ccc(Cl)cc3)C(C)/C(=N/NC(N)=S)C2C)cc(OC)c1OC (configuration not stated) ... inactive
NC(=O)N/N=C/c1ccc(Br)o1 ... inactive

q: What classification did CCC(CC)NCCCCCNc1cc(OC)cc2cccnc12 end up with in this test?
a: inactive

q: Now consider O=[N+]([O-])c1cnc(Sc2ccncn2)c([N+](=O)[O-])c1 .
a: inactive

q: Now consider COc1ccc(/C=N\Nc2ccc([N+](=O)[O-])cn2)cc1OC .
a: inactive

q: Now consider O=C(Nc1ncc([N+](=O)[O-])s1)c1cccc([N+](=O)[O-])c1 .
a: active

q: Now consider O=C(Nc1cccc(-n2cc(-c3ccncc3)c(-c3ccc(O)c(Cl)c3)n2)c1)Nc1ccc(Cl)c(C(F)(F)F)c1 .
a: active

q: Now consider Clc1ncn[nH]1 .
a: inactive

q: Now consider C=C(C[C@@](O)(C(=O)Oc1ccccc1)C(=O)C1CCCCC1)c1ccccc1 .
a: inactive

q: Now consider COc1cccc(-c2nnc(N)o2)c1 .
a: inactive

q: Now consider Cc1nn(-c2ccc(Cl)cc2)c2nc3c(nc12)c(=O)oc1ccccc13 .
a: inactive

q: Now consider CN(C)c1ccc(/C=C(\C#N)c2nc3ccccc3c(=O)[nH]2)cc1 .
a: inactive

q: Now consider O=C(Nc1ccc(C2=NCCCN2)cc1)Nc1ccc(C2=NCCCN2)cc1 .
a: inactive

q: Now consider C=C(C[C@](O)(C(=O)/C=C/c1ccc(Cl)cc1)C(=O)OC)c1ccccc1 .
a: inactive

* * *

growth overview
System: PC-3 prostate
Test: NCI-60 one-dose screen, 48 h (100 = growth as untreated, 0 = no growth, -100 = all killed)
Settings: 10 µM unless noted
Compounds without any hit were thinned out: in the full panel of roughly 83,000, 20% have a hit.
Provide only the numeric value, understood in %.

Below, 4 compounds whose answers are already recorded.
Cn1cc(-c2csc(-c3cn(C)c4ncccc34)n2)c2cc(Br)cnc21 ... 68.5
CN1C(=O)C(=Cc2cn(Cc3ccccc3)c3ccc(Br)cc23)C(=O)N(C)C1=O ... 89.1
COc1ccc(-c2c(-c3cc(OC)c(OC)c(OC)c3)noc2N)cc1 ... 21.8
Cc1cc(C(C)(C)C)cc(C)c1CC1=NCCN1 ... 91

q: Given the entry c1ccc(-n2nnnc2-c2cccc3ccccc23)cc1 , report its measured growth.
a: 5.09

q: Now consider CCCCCCCCCCCCCCCCCc1nccn1CCO .
a: 55.9

q: Now consider CN(CCOc1ccc(CC2SC(=O)NC2=O)cc1)c1ccccn1 (stereo unspecified) .
a: 105

q: Now consider COc1ccc(-n2nnc(C(=O)O)c2-c2cc(OC)c(OC)c(OC)c2)cc1 .
a: 106

q: Now consider COc1ccc(OC)c(/C=C/c2nc(=S)n(-c3ccc(Cl)cc3)[nH]2)c1 .
a: 58.6

q: Now consider COc1ccc(COC(C)=O)cc1 .
a: 95.3

q: Now consider Cn1cnc([N+](=O)[O-])c1S(=O)(=O)Oc1ccc(Cl)cc1 .
a: 90.8

These entries and their values trace back to PubChem BioAssay (NCI).
